These measurements were taken from PubChem BioAssay (EPA / NIEHS).

biological target: Cellular tumor antigen p53 (Homo sapiens); experiment: TOX21_p53_BLA_p5_ratio: Tox21 HCT-116 p53 Agonism Beta-lactamase Assay, Ratio, Phase 5 (AID 2283599)
Records with an inconclusive call do not appear. Activity calls are given as the source filed them. How the source made its calls: active means hit-call score of the fitted dose curve at least 0.9, where 1 is the maximum; inconclusive means response in the unintended direction; inactive means score below 0.9.
Your reply should match one of these outcome classes. y = active, n = inactive

Assay result, entry CC1=C(C(=O)Nc2ccccc2)S(=O)(=O)CCO1 — outcome?
y

Assay result, entry c1ccc2c(c1)Nc1ccccc1S2 — outcome?
n

Assay result, entry Cc1cccc(N)c1 — outcome?
n

Assay result, entry CCOC(=O)c1ccccc1C(=O)OCC — outcome?
n

Assay result, entry CC1(C)CN=C(NN=C(/C=C/c2ccc(C(F)(F)F)cc2)/C=C/c2ccc(C(F)(F)F)cc2)NC1 — outcome?
y

Assay result, entry C=CC(=O)OCC(CC)(COC(=O)C=C)COC(=O)C=C — outcome?
n

Assay result, entry Nc1ccc2ccccc2c1 — outcome?
n

Assay result, entry O=C(O)C1C(C(=O)O)C2(Cl)C(Cl)=C(Cl)C1(Cl)C2(Cl)Cl (stereo not drawn) — outcome?
n
